Species: Rattus norvegicus
protocol: Selectivity ratio of Ki for rat brain membrane sigma 1receptor to Ki for rat brain membrane sigma 2 receptor
If the reported Ratio Ki equals or exceeds 0.2, assign 1 (yes). If not, assign 0 (no).

c1ccc(CCN2CCN(c3ccccn3)CC2)cc1 | 1 (yes)
c1ccc(CCCN2CCN(c3ccccn3)CC2)cc1 | 1 (yes)
c1ccc(CCCN2CCN(c3cccnc3)CC2)cc1 | 0 (no)
c1ccc(CCN2CCN(c3ccncc3)CC2)cc1 | 1 (yes)
c1ccc(CCCN2CCN(c3ccncc3)CC2)cc1 | 1 (yes)
c1ccc(CCN2CCN(c3cccnc3)CC2)cc1 | 1 (yes)

---

Listed compounds paired with reported pKi
target or system: Sigma non-opioid intracellular receptor 1 (Rattus norvegicus, UniProt Q9R0C9)
Sequence (Q9R0C9 whole entry): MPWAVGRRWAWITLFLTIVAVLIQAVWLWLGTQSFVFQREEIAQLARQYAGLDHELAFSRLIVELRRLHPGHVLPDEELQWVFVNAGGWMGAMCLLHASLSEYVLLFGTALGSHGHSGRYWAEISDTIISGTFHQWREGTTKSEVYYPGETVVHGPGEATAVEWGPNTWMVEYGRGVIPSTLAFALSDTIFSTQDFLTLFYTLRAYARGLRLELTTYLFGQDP
protocol: Displacement of [3H](+)-pentazocine from rat brain membrane sigma 1receptor after 120 mins
pKi: −log10 of the molar value.
readout type: pKi

c1ccc(CCN2CCN(c3ccncc3)CC2)cc1 | 7.38
c1ccc(CCCN2CCN(c3cccnc3)CC2)cc1 | 7.67
c1ccc(CCCN2CCN(c3ccncc3)CC2)cc1 | 7.47
c1ccc(CCN2CCN(c3cccnc3)CC2)cc1 | 7.01
